assay: Solubility at 37° C. by UHPLC/UV; assay type: physicochemical; conditions: 0.01 M HCl, 37 °C, pH 2, simulated gastric fluid, thermodynamic from solid, 1 h
PROPERTY MEASURED: solubility at 1 h (µg/mL)

> print(dat)
                                   compound  result.value
1  CC(C)OC(=O)[C@H](C)NP(=O)(OC[C@H]1O[C@@H](n2ccc(=O)[nH]c2=O)[C@](C)(F)[C@@H]1O)Oc1ccccc1 (stereo partly shown) [Form 7]          3200

====

assay: Solubility at 37° C. by UHPLC/UV; format: physicochemical; settings: 50 mM KH2PO4 buffer, 37 °C, pH 6.8, aqueous buffer, thermodynamic from solid, 50 mM KH2PO4 (pH 6.8), 1 h
PROPERTY MEASURED: solubility at 1 h (µg/mL)

> print(dat)
                                   compound  property.measured  result.value
1  CC(C)OC(=O)[C@H](C)NP(=O)(OC[C@H]1O[C@@H](n2ccc(=O)[nH]c2=O)[C@](C)(F)[C@@H]1O)Oc1ccccc1 (stereo partly shown) [Form 7]  solubility at 1 h          3000

====

experiment: Solubility at 37° C. by UHPLC/UV; type: physicochemical; conditions: 50 mM KH2PO4 buffer, 37 °C, pH 6.8, aqueous buffer, thermodynamic from solid, 50 mM KH2PO4 (pH 6.8), 15 min
PROPERTY MEASURED: solubility at 15 min (µg/mL)

> print(dat)
                                   compound  result.value
1  CC(C)OC(=O)[C@H](C)NP(=O)(OC[C@H]1O[C@@H](n2ccc(=O)[nH]c2=O)[C@](C)(F)[C@@H]1O)Oc1ccccc1 (stereo partly shown) [Form 7]          3200

====

test: Solubility at 37° C. by UHPLC/UV; assay type: physicochemical; conditions: 20 mM sodium acetate/acetic acid buffer, 37 °C, pH 4.5, aqueous buffer, thermodynamic from solid, 20 mM NaOAc/HOAc (pH 4.5), 15 min
PROPERTY MEASURED: solubility at 15 min (µg/mL)

> print(dat)
                                   molecule  result.value
1  CC(C)OC(=O)[C@H](C)NP(=O)(OC[C@H]1O[C@@H](n2ccc(=O)[nH]c2=O)[C@](C)(F)[C@@H]1O)Oc1ccccc1 (stereo partly shown) [Form 7]          3100

Origin of measurements: patent US10214553B2
